# key: entry, value: combination Emax
Test system: U-2-OS (Osteosarcoma)
METHOD NOTES: combination Emax (second highest fraction inhibited in the dose matrix, 72 h); higher = more inhibition; extreme values may be limits of the assay
PROPERTY MEASURED: combination Emax

INSERT INTO results (compound, result_value) VALUES
  ('Cc1c2c(nn1C)CSCc1cc(n(C)n1)CSc1cc(c3ccccc3c1)OCCCc1c(C(=O)O)n(C)c3c-2c(Cl)ccc13 [AZD5991] + CCN(CCO)CCCOc1ccc2c(Nc3cc(CC(=O)Nc4cccc(F)c4)[nH]n3)ncnc2c1 [AZD2811] (first compound max 1 µM, 7x7, partner max 1 µM)', 0.307),
  ('CS(=O)(=O)CCNCc1ccc(-c2ccc3ncnc(Nc4ccc(OCc5cccc(F)c5)c(Cl)c4)c3c2)o1 [Lapatinib] + Cn1cnc2c(F)c(Nc3ccc(Br)cc3Cl)c(C(=O)NOCCO)cc21 [Selumetinib] (first compound max 10 µM, 7x7, partner max 10 µM)', 0.647),
  ('CCN(CCO)CCCOc1ccc2c(Nc3cc(CC(=O)Nc4cccc(F)c4)[nH]n3)ncnc2c1 [AZD2811] + C=CCn1c(=O)c2cnc(Nc3ccc(N4CCN(C)CC4)cc3)nc2n1-c1cccc(C(C)(C)O)n1 [AZD1775] (first compound max 1 µM, partner max 1 µM)', 0.628),
  ('NC1(C(=O)N[C@@H](CCO)c2ccc(Cl)cc2)CCN(c2ncnc3[nH]ccc23)CC1 [Capivasertib] + COc1nnc2ccc(N3CCC(c4ccc(OCCN5CCN(C)C(=O)[C@H]5C)cc4)CC3)nn12 [AZD5153] (first compound max 10 µM, 7x7, partner max 1 µM)', 0.354),
  ('COc1nnc2ccc(N3CCC(c4ccc(OCCN5CCN(C)C(=O)[C@H]5C)cc4)CC3)nn12 [AZD5153] + Cn1cnc2c(F)c(Nc3ccc(Br)cc3Cl)c(C(=O)NOCCO)cc21 [Selumetinib] (first compound max 1 µM, 7x7, partner max 10 µM)', 0.628),
  ('COc1cccc(OCCCN)c1-c1cc(Nc2cnc(C#N)cn2)n[nH]1 [Prexasertib] + C=CCn1c(=O)c2cnc(Nc3ccc(N4CCN(C)CC4)cc3)nc2n1-c1cccc(C(C)(C)O)n1 [AZD1775] (first compound max 1 µM, partner max 1 µM)', 0.934),
  ('C[C@@H](c1ccc2nccn2c1)n1nnc2ncc(-c3cnn(C)c3)nc21 [Savolitinib] + CN(CC[C@H](CSC1=CC=CC=C1)NC2=C(C=C(C=C2)S(=O)(=O)NC(=O)C3=CC=C(C=C3)N4CCC(CC4)[C@H](C5=CC=CC=C5C6=CC=C(C=C6)Cl)O)S(=O)(=O)C(F)(F)F)CCO [AZD4320] (first compound max 1 µM, 7x7, partner max 1 µM)', 0.385),
  ('Cc1c2c(nn1C)CSCc1cc(n(C)n1)CSc1cc(c3ccccc3c1)OCCCc1c(C(=O)O)n(C)c3c-2c(Cl)ccc13 [AZD5991] + CC(=O)O[C@H]1C(=O)[C@@]2(C)[C@H]([C@H](OC(=O)c3ccccc3)[C@]3(O)C[C@H](OC(=O)[C@H](O)[C@@H](NC(=O)c4ccccc4)c4ccccc4)C(C)=C1C3(C)C)[C@]1(OC(C)=O)CO[C@@H]1C[C@@H]2O [Paclitaxel] (first compound max 1 µM, 7x7, partner max 3 µM)', 0.735),
  ('C[C@@H]1COCCN1c1cc(C2([S@](C)(=N)=O)CC2)nc(-c2ccnc3[nH]ccc23)n1 [AZD6738] + Nc1ccn([C@@H]2O[C@H](CO)[C@@H](O)C2(F)F)c(=O)n1 [Gemcitabine] (first compound max 10 µM, 7x7, partner max 0.3 µM)', 0.83),
  ('CN(CCO)CC[C@H](CSc1ccccc1)Nc1ccc(S(=O)(=O)NC(=O)c2ccc(N3CCC([C@@H](O)c4ccccc4-c4ccc(Cl)cc4)CC3)cc2)cc1S(=O)(=O)C(F)(F)F [AZD4320] + C1CN(CCC1(C(=O)N[C@@H](CCO)C2=CC=C(C=C2)Cl)N)C3=NC=NC4=C3C=CN4 [Capivasertib] (first compound max 1 µM, 7x7, partner max 3 µM)', 0.225),
  ('O=C(c1cc(Cc2n[nH]c(=O)c3ccccc23)ccc1F)N1CCN(C(=O)C2CC2)CC1 [Olaparib] + CN(CC[C@H](CSC1=CC=CC=C1)NC2=C(C=C(C=C2)S(=O)(=O)NC(=O)C3=CC=C(C=C3)N4CCC(CC4)[C@H](C5=CC=CC=C5C6=CC=C(C=C6)Cl)O)S(=O)(=O)C(F)(F)F)CCO [AZD4320] (first compound max 10 µM, 7x7, partner max 1 µM)', 0.202),
  ('COc1cccc(OCCCN)c1-c1cc(Nc2cnc(C#N)cn2)n[nH]1 [Prexasertib] + CN(C)CCCOc1ccc(-c2ccc3ncc4c(c3c2)n(C2CCOCC2)c(=O)n4C)cn1 [AZD0156] (first compound max 1 µM, 7x7, partner max 1 µM)', 0.943),
  ('Cc1c2c(nn1C)CSCc1cc(n(C)n1)CSc1cc(c3ccccc3c1)OCCCc1c(C(=O)O)n(C)c3c-2c(Cl)ccc13 [AZD5991] + Nc1ccn([C@@H]2O[C@H](CO)[C@@H](O)C2(F)F)c(=O)n1 [Gemcitabine] (first compound max 1 µM, 7x7, partner max 0.3 µM)', 0.387);

----------
# key: entry, value: combination Emax
System: SK-MG-1 (Low Grade Glioma)
METHOD NOTES: combination Emax (second highest fraction inhibited in the dose matrix, 72 h); higher = more inhibition; extreme values may be limits of the assay
PROPERTY MEASURED: combination Emax

INSERT INTO measurements (compound, system_tested, result_value) VALUES
  ('CS(=O)(=O)CCNCc1ccc(-c2ccc3ncnc(Nc4ccc(OCc5cccc(F)c5)c(Cl)c4)c3c2)o1 [Lapatinib] + C[C@@H](Oc1cc(-c2cnn(C3CCNCC3)c2)cnc1N)c1c(Cl)ccc(F)c1Cl [Crizotinib] (first compound max 10 µM, 7x7, partner max 10 µM)', 'SK-MG-1 (Low Grade Glioma)', 0.9),
  ('NC1(C(=O)N[C@@H](CCO)c2ccc(Cl)cc2)CCN(c2ncnc3[nH]ccc23)CC1 [Capivasertib] + C[C@@H]1COCCN1C2=NC(=NC(=C2)C3(CC3)[S@](=N)(=O)C)C4=C5C=CNC5=NC=C4 [AZD6738] (first compound max 10 µM, 7x7, partner max 10 µM)', 'SK-MG-1 (Low Grade Glioma)', 0.668),
  ('COc1cc2ncnc(Nc3ccc(F)c(Cl)c3)c2cc1OCCCN1CCOCC1 [Gefitinib] + CC(C)n1c(=O)n(C)c2cnc3cc(F)c(-c4ccc(OCCCN5CCCCC5)nc4)cc3c21 [AZD1390] (first compound max 10 µM, 7x7, partner max 0.3 µM)', 'SK-MG-1 (Low Grade Glioma)', 0.072),
  ('CCN(CCO)CCCOc1ccc2c(Nc3cc(CC(=O)Nc4cccc(F)c4)[nH]n3)ncnc2c1 [AZD2811] + O=C(c1cc(Cc2n[nH]c(=O)c3ccccc23)ccc1F)N1CCN(C(=O)C2CC2)CC1 [Olaparib] (first compound max 1 µM, 7x7, partner max 10 µM)', 'SK-MG-1 (Low Grade Glioma)', 0.405);

----------
# key: entry, value: combination Emax
System: TT (Thyroid Gland Carcinoma)
METHOD NOTES: combination Emax (second highest fraction inhibited in the dose matrix, 72 h); higher = more inhibition; extreme values may be limits of the assay
PROPERTY MEASURED: combination Emax

INSERT INTO measurements (compound, result_value) VALUES
  ('CS(=O)(=O)CCNCc1ccc(-c2ccc3ncnc(Nc4ccc(OCc5cccc(F)c5)c(Cl)c4)c3c2)o1 [Lapatinib] + C[C@@H](Oc1cc(-c2cnn(C3CCNCC3)c2)cnc1N)c1c(Cl)ccc(F)c1Cl [Crizotinib] (first compound max 10 µM, 7x7, partner max 10 µM)', 0.409),
  ('C=CCn1c(=O)c2cnc(Nc3ccc(N4CCN(C)CC4)cc3)nc2n1-c1cccc(C(C)(C)O)n1 [AZD1775] + O=C(c1cc(Cc2n[nH]c(=O)c3ccccc23)ccc1F)N1CCN(C(=O)C2CC2)CC1 [Olaparib] (first compound max 1 µM, partner max 10 µM)', 0.273),
  ('CN(CCO)CC[C@H](CSc1ccccc1)Nc1ccc(S(=O)(=O)NC(=O)c2ccc(N3CCC([C@@H](O)c4ccccc4-c4ccc(Cl)cc4)CC3)cc2)cc1S(=O)(=O)C(F)(F)F [AZD4320] + Cc1cc2ncnn2cc1Nc1ncc2c(n1)n(C1CCOCC1)c(=O)n2C [AZD7648] (first compound max 1 µM, 7x7, partner max 10 µM)', 0.209),
  ('NC1(C(=O)N[C@@H](CCO)c2ccc(Cl)cc2)CCN(c2ncnc3[nH]ccc23)CC1 [Capivasertib] + CCN(CCO)CCCOc1ccc2c(Nc3cc(CC(=O)Nc4cccc(F)c4)[nH]n3)ncnc2c1 [AZD2811] (first compound max 10 µM, 7x7, partner max 1 µM)', 0.544),
  ('COc1cc2c(cc1OCCCCCOc1cc3c(cc1OC)C(=O)N1C=C(C)C[C@H]1C=N3)N=C[C@@H]1CC(C)=CN1C2=O [SG3199] + O=C(c1cc(Cc2n[nH]c(=O)c3ccccc23)ccc1F)N1CCN(C(=O)C2CC2)CC1 [Olaparib] (first compound max 0.001 µM, 7x7, partner max 10 µM)', 0.187);
